Attribution: PubChem BioAssay AID1918991

# Tested on: 186277-243-T-J2-PDC complex spheroid growth
# assay info: Anticancer human tumor 186277-243-T-J2-PDC patient-derived colon adenocarcinoma cell line growth inhibition [AhR]
# measurement setup: second compound 1 µM; first compound 0.00316 µM; hits give low values
With a cut-off of 90%, any viability, T/C strictly below it is called class 1; any viability, T/C meeting it or above is called class 0.

- molecule: "CC1COCCN1c1cc(-c2ccnn2C)c2ccnc(-c3ccn[nH]3)c2n1 (stereo unspecified) + Cc1ccccc1N=Nc1ccc(NC(=O)c2ccnn2C)c(C)c1"
  assayed target: "186277-243-T-J2-PDC complex spheroid growth"
  class: "class 0"
- molecule: "CC1COCCN1c1cc(-c2ccnn2C)c2ccnc(-c3ccn[nH]3)c2n1 (stereo unspecified) + CC(CO)NC(=O)c1cc(-c2ccc(Cl)cc2)nn(-c2cnn(C)c2)c1=O"
  assayed target: "186277-243-T-J2-PDC complex spheroid growth"
  class: "class 0"
- molecule: "Nc1ncn(C2CC(O)C(CO)O2)c(=O)n1 (stereo unspecified) + CC(CO)NC(=O)c1cc(-c2ccc(Cl)cc2)nn(-c2cnn(C)c2)c1=O"
  assayed target: "186277-243-T-J2-PDC complex spheroid growth"
  class: "class 1"
- molecule: "Cn1ncnc1C1c2n[nH]c(=O)c3cc(F)cc(c23)NC1c1ccc(F)cc1 (stereo unspecified) + Cc1cncc(-c2nc(NCCc3c[nH]c4ccccc34)c3ncn(C(C)C)c3n2)c1"
  assayed target: "186277-243-T-J2-PDC complex spheroid growth"
  class: "class 0"
- molecule: "CC[C@@]1(O)C(=O)OCc2c1cc1n(c2=O)Cc2cc3c(CN(C)C)c(O)ccc3nc2-1 + Cc1cncc(-c2nc(NCCc3c[nH]c4ccccc34)c3ncn(C(C)C)c3n2)c1"
  assayed target: "186277-243-T-J2-PDC complex spheroid growth"
  class: "class 0"

###

# Tested on: 186277-243-T-J2-PDC complex spheroid growth
# assay info: Anticancer human tumor 186277-243-T-J2-PDC cell line growth inhibition [AhR]
# measurement setup: second compound 0.1 µM; first compound 0.3 µM; hits give low values
# reported viability, T/C; entries follow

- molecule: "CCc1c2c(nc3ccc(O)cc13)-c1cc3c(c(=O)n1C2)COC(=O)[C@]3(O)CC + CC(CO)NC(=O)c1cc(-c2ccc(Cl)cc2)nn(-c2cnn(C)c2)c1=O"
  assayed target: "186277-243-T-J2-PDC complex spheroid growth"
  viability, T/C (%): 6.69
- molecule: "O=C(C=Cn1cnc(-c2cc(C(F)(F)F)cc(C(F)(F)F)c2)n1)NNc1cnccn1 + CC(CO)NC(=O)c1cc(-c2ccc(Cl)cc2)nn(-c2cnn(C)c2)c1=O"
  assayed target: "186277-243-T-J2-PDC complex spheroid growth"
  viability, T/C (%): 13.1
- molecule: "Nc1ncn(C2CC(O)C(CO)S2)c(=O)n1 (stereo unspecified) + Cc1ccccc1N=Nc1ccc(NC(=O)c2ccnn2C)c(C)c1"
  assayed target: "186277-243-T-J2-PDC complex spheroid growth"
  viability, T/C (%): 111
- molecule: "CCN(c1cc(-c2ccc(CN3CCOCC3)cc2)cc(C(=O)NCc2c(C)cc(C)[nH]c2=O)c1C)C1CCOCC1 + Cc1cncc(-c2nc(NCCc3c[nH]c4ccccc34)c3ncn(C(C)C)c3n2)c1"
  assayed target: "186277-243-T-J2-PDC complex spheroid growth"
  viability, T/C (%): 102
- molecule: "CCN(c1cc(-c2ccc(CN3CCOCC3)cc2)cc(C(=O)NCc2c(C)cc(C)[nH]c2=O)c1C)C1CCOCC1 + Cc1ccccc1N=Nc1ccc(NC(=O)c2ccnn2C)c(C)c1"
  assayed target: "186277-243-T-J2-PDC complex spheroid growth"
  viability, T/C (%): 108
- molecule: "CC(C)CC(NC(=O)C(Cc1ccccc1)NC(=O)c1cnccn1)B(O)O (stereo unspecified) + Cc1ccccc1N=Nc1ccc(NC(=O)c2ccnn2C)c(C)c1"
  assayed target: "186277-243-T-J2-PDC complex spheroid growth"
  viability, T/C (%): 0.12

###

# reported viability, T/C; entries follow
# Test system: 186277-243-T-J2-PDC complex spheroid growth
# assay info: Anticancer human tumor 186277-243-T-J2-PDC cell line growth inhibition [AhR];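 also: luminescent signal used as a stand-in for viable cell amount; spheroids exposed to compounds for seven days before the viability read; 100% = DMSO vehicle control wells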
# measurement setup: second compound 3.16 µM; first compound 1 µM; hits give low values
# From the text: Multicellular complex tumor spheroid response to aryl hydrocarbon receptor antagonists in combination with a variety of drugs and investigational agents in selected tumor cell lines […] Compounds. […] If the clinical Cmax for an agent had not been determined, the highest concentration tested was 10 microM (Table 1). […]
readout kind: viability, T/C (%)

- molecule: "Nc1ncn(C2CC(O)C(CO)O2)c(=O)n1 (stereo unspecified) + Cc1cncc(-c2nc(NCCc3c[nH]c4ccccc34)c3ncn(C(C)C)c3n2)c1"
  assayed target: "186277-243-T-J2-PDC complex spheroid growth"
  experimental result: 165
- molecule: "NS(=O)(=O)OCC1CC(n2ccc3c(NC4CCc5ccccc54)ncnc32)CC1O (stereo unspecified) + CC(CO)NC(=O)c1cc(-c2ccc(Cl)cc2)nn(-c2cnn(C)c2)c1=O"
  assayed target: "186277-243-T-J2-PDC complex spheroid growth"
  experimental result: 7.89
- molecule: "CC(C)c1c(-c2ccccc2)nc2c(C#N)c[nH]n2c1=O + Cc1cncc(-c2nc(NCCc3c[nH]c4ccccc34)c3ncn(C(C)C)c3n2)c1"
  assayed target: "186277-243-T-J2-PDC complex spheroid growth"
  experimental result: 96.1
- molecule: "Nc1ncn(C2CC(O)C(CO)O2)c(=O)n1 (stereo unspecified) + Cc1ccccc1N=Nc1ccc(NC(=O)c2ccnn2C)c(C)c1"
  assayed target: "186277-243-T-J2-PDC complex spheroid growth"
  experimental result: 122
- molecule: "COc1cc(Nc2ncc3c(n2)-c2ccc(Cl)cc2C(c2c(F)cccc2OC)=NC3)ccc1C(=O)O + CC(CO)NC(=O)c1cc(-c2ccc(Cl)cc2)nn(-c2cnn(C)c2)c1=O"
  assayed target: "186277-243-T-J2-PDC complex spheroid growth"
  experimental result: 19.3
- molecule: "NS(=O)(=O)OCC1CC(n2ccc3c(NC4CCc5ccccc54)ncnc32)CC1O (stereo unspecified) + Cc1ccccc1N=Nc1ccc(NC(=O)c2ccnn2C)c(C)c1"
  assayed target: "186277-243-T-J2-PDC complex spheroid growth"
  experimental result: 36.3

###

# System: 186277-243-T-J2-PDC complex spheroid growth
# assay info: Anticancer human tumor 186277-243-T-J2-PDC cell line growth inhibition [AhR]; active means viability on the fitted dose curve at most 10% of control; inactive means the rest;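 also: luminescent signal used as a stand-in for viable cell amount; spheroids exposed to compounds for seven days before the viability read; 100% = DMSO vehicle control wells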
# measurement setup: second compound 1 µM; first compound 1 µM
Classes used: YES = active, NO = inactive

- molecule: "Nc1ncn(C2CC(O)C(CO)O2)c(=O)n1 (centres undefined) + Cc1ccccc1N=Nc1ccc(NC(=O)c2ccnn2C)c(C)c1"
  class: "NO"
- molecule: "Nc1ccn(C2OC(CO)C(O)C2(F)F)c(=O)n1 (centres undefined) + CC(CO)NC(=O)c1cc(-c2ccc(Cl)cc2)nn(-c2cnn(C)c2)c1=O"
  class: "YES"
- molecule: "NS(=O)(=O)OCC1CC(n2ccc3c(NC4CCc5ccccc54)ncnc32)CC1O (centres undefined) + Cc1cncc(-c2nc(NCCc3c[nH]c4ccccc34)c3ncn(C(C)C)c3n2)c1"
  class: "NO"
- molecule: "COc1cc(Nc2ncc3c(n2)-c2ccc(Cl)cc2C(c2c(F)cccc2OC)=NC3)ccc1C(=O)O + CC(CO)NC(=O)c1cc(-c2ccc(Cl)cc2)nn(-c2cnn(C)c2)c1=O"
  class: "NO"

###

# System: 186277-243-T-J2-PDC complex spheroid growth
# assay info: Anticancer human tumor 186277-243-T-J2-PDC cell line growth inhibition [AhR];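 also: luminescent signal used as a stand-in for viable cell amount; spheroids exposed to compounds for seven days before the viability read; 100% = DMSO vehicle control wells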
# measurement setup: second compound 3.16 µM; first compound 0.0316 µM; hits give low values
readout kind: viability, T/C (%)

- molecule: "CC1COCCN1c1cc(-c2ccnn2C)c2ccnc(-c3ccn[nH]3)c2n1 (stereo not drawn) + Cc1ccccc1N=Nc1ccc(NC(=O)c2ccnn2C)c(C)c1"
  experimental result: 92.6
- molecule: "CC1(C)CCC(CN2CCN(c3ccc(C(=O)NS(=O)(=O)c4ccc(NCC5CCOCC5)c([N+](=O)[O-])c4)c(Oc4cnc5[nH]ccc5c4)c3)CC2)=C(c2ccc(Cl)cc2)C1 + CC(CO)NC(=O)c1cc(-c2ccc(Cl)cc2)nn(-c2cnn(C)c2)c1=O"
  experimental result: 95.2
- molecule: "COc1cccc2c1C(=O)c1c(O)c3c(c(O)c1C2=O)CC(O)(C(=O)CO)CC3OC1CC(N)C(O)C(C)O1 (stereo not drawn) + CC(CO)NC(=O)c1cc(-c2ccc(Cl)cc2)nn(-c2cnn(C)c2)c1=O"
  experimental result: 33.9

###

# System: 186277-243-T-J2-PDC complex spheroid growth
# assay info: Anticancer human tumor 186277-243-T-J2-PDC cell line growth inhibition [AhR]; active = viability on the fitted dose curve at most 10% of control; inactive = the rest;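 also: luminescent signal used as a stand-in for viable cell amount; spheroids exposed to compounds for seven days before the viability read; 100% = DMSO vehicle control wells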
# measurement setup: second compound 0.1 µM; first compound 3.16 µM
# Text: Multicellular complex tumor spheroid response to aryl hydrocarbon receptor antagonists in combination with a variety of drugs and investigational agents in selected tumor cell lines […] Compounds. […] If the clinical Cmax for an agent had not been determined, the highest concentration tested was 10 microM (Table 1). […]
Classes used: YES (active), NO (inactive)

- compound: "COc1cc(Nc2ncc3c(n2)-c2ccc(Cl)cc2C(c2c(F)cccc2OC)=NC3)ccc1C(=O)O + Cc1cncc(-c2nc(NCCc3c[nH]c4ccccc34)c3ncn(C(C)C)c3n2)c1"
  class: "NO"
- compound: "CC1(C)CCC(CN2CCN(c3ccc(C(=O)NS(=O)(=O)c4ccc(NCC5CCOCC5)c([N+](=O)[O-])c4)c(Oc4cnc5[nH]ccc5c4)c3)CC2)=C(c2ccc(Cl)cc2)C1 + Cc1cncc(-c2nc(NCCc3c[nH]c4ccccc34)c3ncn(C(C)C)c3n2)c1"
  class: "NO"
- compound: "O=C(c1cc(Cc2n[nH]c(=O)c3ccccc23)ccc1F)N1CCN(C(=O)C2CC2)CC1 + Cc1cncc(-c2nc(NCCc3c[nH]c4ccccc34)c3ncn(C(C)C)c3n2)c1"
  class: "NO"
- compound: "COc1cccc2c1C(=O)c1c(O)c3c(c(O)c1C2=O)CC(O)(C(=O)CO)CC3OC1CC(N)C(O)C(C)O1 (centres undefined) + Cc1ccccc1N=Nc1ccc(NC(=O)c2ccnn2C)c(C)c1"
  class: "YES"
- compound: "CC1COCCN1c1cc(C2(S(C)(=N)=O)CC2)nc(-c2ccnc3[nH]ccc23)n1 (centres undefined) + Cc1cncc(-c2nc(NCCc3c[nH]c4ccccc34)c3ncn(C(C)C)c3n2)c1"
  class: "NO"
- compound: "O=C(c1cc(Cc2n[nH]c(=O)c3ccccc23)ccc1F)N1CCN(C(=O)C2CC2)CC1 + CC(CO)NC(=O)c1cc(-c2ccc(Cl)cc2)nn(-c2cnn(C)c2)c1=O"
  class: "NO"
- compound: "O=C(C=Cc1cccc(S(=O)(=O)Nc2ccccc2)c1)NO + CC(CO)NC(=O)c1cc(-c2ccc(Cl)cc2)nn(-c2cnn(C)c2)c1=O"
  class: "YES"
- compound: "Nc1ccccc1NC(=O)c1ccc(CNC(=O)OCc2cccnc2)cc1 + CC(CO)NC(=O)c1cc(-c2ccc(Cl)cc2)nn(-c2cnn(C)c2)c1=O"
  class: "YES"
- compound: "COc1ccc([C@@H](O)c2cc(-c3ncnc4cc(N5CCOCC5)ccc34)c(F)cc2Cl)nn1 + Cc1ccccc1N=Nc1ccc(NC(=O)c2ccnn2C)c(C)c1"
  class: "NO"
- compound: "CC1COCCN1c1cc(C2(S(C)(=N)=O)CC2)nc(-c2ccnc3[nH]ccc23)n1 (centres undefined) + CC(CO)NC(=O)c1cc(-c2ccc(Cl)cc2)nn(-c2cnn(C)c2)c1=O"
  class: "YES"
- compound: "Nc1ccccc1NC(=O)c1ccc(CNC(=O)OCc2cccnc2)cc1 + Cc1ccccc1N=Nc1ccc(NC(=O)c2ccnn2C)c(C)c1"
  class: "NO"
- compound: "COc1cc(C2c3cc4c(cc3C(OC3OC5COC(C)OC5C(O)C3O)C3COC(=O)C23)OCO4)cc(OC)c1O (centres undefined) + Cc1ccccc1N=Nc1ccc(NC(=O)c2ccnn2C)c(C)c1"
  class: "NO"
- compound: "COc1cccc2c1C(=O)c1c(O)c3c(c(O)c1C2=O)CC(O)(C(=O)CO)CC3OC1CC(N)C(O)C(C)O1 (centres undefined) + Cc1cncc(-c2nc(NCCc3c[nH]c4ccccc34)c3ncn(C(C)C)c3n2)c1"
  class: "YES"
- compound: "NS(=O)(=O)OCC1CC(n2ccc3c(NC4CCc5ccccc54)ncnc32)CC1O (centres undefined) + Cc1ccccc1N=Nc1ccc(NC(=O)c2ccnn2C)c(C)c1"
  class: "NO"
- compound: "COc1cc(Nc2ncc3c(n2)-c2ccc(Cl)cc2C(c2c(F)cccc2OC)=NC3)ccc1C(=O)O + Cc1ccccc1N=Nc1ccc(NC(=O)c2ccnn2C)c(C)c1"
  class: "NO"
- compound: "CC(C)c1c(-c2ccccc2)nc2c(C#N)c[nH]n2c1=O + Cc1cncc(-c2nc(NCCc3c[nH]c4ccccc34)c3ncn(C(C)C)c3n2)c1"
  class: "NO"
- compound: "NS(=O)(=O)OCC1CC(n2ccc3c(NC4CCc5ccccc54)ncnc32)CC1O (centres undefined) + Cc1cncc(-c2nc(NCCc3c[nH]c4ccccc34)c3ncn(C(C)C)c3n2)c1"
  class: "NO"
- compound: "CC(C)c1c(-c2ccccc2)nc2c(C#N)c[nH]n2c1=O + CC(CO)NC(=O)c1cc(-c2ccc(Cl)cc2)nn(-c2cnn(C)c2)c1=O"
  class: "NO"
- compound: "COc1ccc([C@@H](O)c2cc(-c3ncnc4cc(N5CCOCC5)ccc34)c(F)cc2Cl)nn1 + Cc1cncc(-c2nc(NCCc3c[nH]c4ccccc34)c3ncn(C(C)C)c3n2)c1"
  class: "NO"
- compound: "O=C(C=Cc1cccc(S(=O)(=O)Nc2ccccc2)c1)NO + Cc1cncc(-c2nc(NCCc3c[nH]c4ccccc34)c3ncn(C(C)C)c3n2)c1"
  class: "YES"
- compound: "Nc1ccn(C2OC(CO)C(O)C2(F)F)c(=O)n1 (centres undefined) + Cc1ccccc1N=Nc1ccc(NC(=O)c2ccnn2C)c(C)c1"
  class: "NO"
- compound: "CC1(C)CCC(CN2CCN(c3ccc(C(=O)NS(=O)(=O)c4ccc(NCC5CCOCC5)c([N+](=O)[O-])c4)c(Oc4cnc5[nH]ccc5c4)c3)CC2)=C(c2ccc(Cl)cc2)C1 + CC(CO)NC(=O)c1cc(-c2ccc(Cl)cc2)nn(-c2cnn(C)c2)c1=O"
  class: "NO"
- compound: "O=C(c1cc(Cc2n[nH]c(=O)c3ccccc23)ccc1F)N1CCN(C(=O)C2CC2)CC1 + Cc1ccccc1N=Nc1ccc(NC(=O)c2ccnn2C)c(C)c1"
  class: "NO"
- compound: "Nc1ccn(C2OC(CO)C(O)C2(F)F)c(=O)n1 (centres undefined) + Cc1cncc(-c2nc(NCCc3c[nH]c4ccccc34)c3ncn(C(C)C)c3n2)c1"
  class: "YES"
